Assay: self-splicing fitness, log relative to wild type (ln ratio); higher = more splicing; Tetrahymena group I intron in knt gene, E. coli kanamycin selection, DiMSum; sequences stand for … in CUCUCU…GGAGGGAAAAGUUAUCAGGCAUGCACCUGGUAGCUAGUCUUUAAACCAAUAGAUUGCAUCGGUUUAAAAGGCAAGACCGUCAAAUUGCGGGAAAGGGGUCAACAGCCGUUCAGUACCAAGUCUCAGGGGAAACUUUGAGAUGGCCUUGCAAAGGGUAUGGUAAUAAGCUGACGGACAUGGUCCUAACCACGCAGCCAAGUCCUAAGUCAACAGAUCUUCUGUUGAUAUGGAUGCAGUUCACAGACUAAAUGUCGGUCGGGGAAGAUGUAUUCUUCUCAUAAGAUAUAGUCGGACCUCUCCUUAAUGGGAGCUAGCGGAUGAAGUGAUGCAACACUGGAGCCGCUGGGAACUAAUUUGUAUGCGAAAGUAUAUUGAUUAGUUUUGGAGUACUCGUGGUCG;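 also: selection with 25 µg/mL kanamycin versus none on LB agar overnight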
Conditions: 37 °C
We begin with a simple list: items and their reported self-splicing fitness (ln).
Answer with the value's number alone.

Check out these entries, answers already filled in.
Ordered Residues	Observed Result
CGGAAGCAAUAUUACGGUAU	-1.95
UAUUAGCAAUAUUACGGUAA	-1.54
UUCUAGCAAUAUUACGCUCA	-0.208
ACUAAGCAAUAUUACGCACC	-0.198
CAUAAGCAAUAUUACGACAU	-2.45

Note self-splicing fitness (ln) for the sequence shown: CGAAAGCAAUAUUACGAAGU -1.84

Note self-splicing fitness (ln) for the sequence shown: GCCAAGCAAUAUUACGGUCC -0.771
